Every entry's value here was drawn from ChEMBL document CHEMBL3774386.

Target: Cannabinoid receptor 1 (Homo sapiens)
Sequence (P21554 whole entry): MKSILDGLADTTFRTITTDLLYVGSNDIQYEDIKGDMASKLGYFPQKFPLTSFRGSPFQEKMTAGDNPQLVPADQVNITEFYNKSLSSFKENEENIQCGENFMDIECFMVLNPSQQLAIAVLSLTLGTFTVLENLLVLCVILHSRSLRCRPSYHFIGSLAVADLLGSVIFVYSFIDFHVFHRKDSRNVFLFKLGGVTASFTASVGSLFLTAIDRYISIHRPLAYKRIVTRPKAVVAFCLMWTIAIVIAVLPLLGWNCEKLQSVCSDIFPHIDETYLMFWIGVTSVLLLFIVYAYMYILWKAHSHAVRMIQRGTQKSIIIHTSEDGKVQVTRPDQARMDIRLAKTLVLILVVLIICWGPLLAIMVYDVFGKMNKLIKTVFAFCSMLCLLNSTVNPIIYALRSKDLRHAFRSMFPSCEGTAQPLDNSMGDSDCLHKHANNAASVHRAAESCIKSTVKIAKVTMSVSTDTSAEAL
Assay: Displacement of [3H]CP-55,940 from human CB1 receptor expressed in CHO cell membranes after 90 mins by scintillation counting analysis
pKi: −log10 of the molar value.
Listed here: items and their measured pKi.

>  <smiles-structure>
C=CCN(CC=C)c1nc2n(CCCCC)cc(C(=O)NC3CCCCC3)c(=O)n2n1

>  <pKi>
< 5.00

$$$$
>  <smiles-structure>
CCCCCn1cc(C(=O)NC23CC4CC(CC(C4)C2)C3)c(=O)n2nc(-c3ccc(OC)cc3)nc12

>  <pKi>
5.43

$$$$
>  <smiles-structure>
CCCCCn1cc(C(=O)NC2CCCCC2)c(=O)n2nc(N3CCOCC3)nc12

>  <pKi>
< 5.00

$$$$
>  <smiles-structure>
CCCCCn1cc(C(=O)NC2CCCCC2)c(=O)n2nc(-c3ccc(C)cc3)nc12

>  <pKi>
< 5.00

$$$$
>  <smiles-structure>
CCCCCn1cc(C(=O)NC23CC4CC(CC(C4)C2)C3)c(=O)n2nc(N(C)Cc3ccccc3)nc12

>  <pKi>
< 5.00

$$$$
